Provenance of the data: patent US20070105771A1

Known pKd of a selection of binders
Target: T1, Purified recombinant human CD26 (rhDipeptidyl peptidase IV), R&D Systems CAT #1180-SE (human, UniProt P27487 29-766)
T1 construct: Bought recombinant protein; also called hu-CD26; soluble human CD26
T1 sequence (P27487 29-766 limits assumed): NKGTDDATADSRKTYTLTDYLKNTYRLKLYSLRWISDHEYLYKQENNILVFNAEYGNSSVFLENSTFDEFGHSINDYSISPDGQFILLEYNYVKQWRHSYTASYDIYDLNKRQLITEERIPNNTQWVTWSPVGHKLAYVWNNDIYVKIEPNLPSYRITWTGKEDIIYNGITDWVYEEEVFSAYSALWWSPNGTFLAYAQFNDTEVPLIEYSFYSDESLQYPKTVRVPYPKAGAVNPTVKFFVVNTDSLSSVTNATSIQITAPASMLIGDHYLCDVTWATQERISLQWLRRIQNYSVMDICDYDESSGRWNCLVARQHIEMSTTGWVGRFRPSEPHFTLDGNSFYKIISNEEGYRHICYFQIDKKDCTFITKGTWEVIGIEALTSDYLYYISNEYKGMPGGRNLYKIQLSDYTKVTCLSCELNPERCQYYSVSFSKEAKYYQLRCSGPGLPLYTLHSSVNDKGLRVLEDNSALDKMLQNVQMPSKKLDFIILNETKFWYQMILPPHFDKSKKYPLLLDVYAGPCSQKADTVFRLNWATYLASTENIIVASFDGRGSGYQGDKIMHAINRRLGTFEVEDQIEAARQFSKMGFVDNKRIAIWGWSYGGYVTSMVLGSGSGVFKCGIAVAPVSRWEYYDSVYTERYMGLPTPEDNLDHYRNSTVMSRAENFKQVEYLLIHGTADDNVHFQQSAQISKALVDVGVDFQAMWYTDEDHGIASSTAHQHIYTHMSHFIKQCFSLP
Test: SPR (Biacore), Fab
Remember the convention: pKd equals -log10 of concentration in molar.

[[record]]
binder = "Fab X389 (X384 VH and X376 VL) (Fab, V domains shown, Fab made in E. coli) VH: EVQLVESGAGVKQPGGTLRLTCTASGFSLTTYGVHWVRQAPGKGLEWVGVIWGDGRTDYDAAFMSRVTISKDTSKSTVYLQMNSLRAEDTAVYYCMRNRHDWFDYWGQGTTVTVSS VL: DILMTQSPSSLSASPGDRVTISCRASQDIRNNLNWYQQKPGQAPRLLIYYSSNLHSGVPDRFSGSGSGTDFTLTISRLEPEDFAAYYCQQSIKLPLTFGSGTKVEIK"
numericreadout = 9.42


Moving on to another binder below.
Challenge: Entry Fab comprising X380 VL and CM03 VH (Fab, V domains shown, Fab made in E. coli) VH: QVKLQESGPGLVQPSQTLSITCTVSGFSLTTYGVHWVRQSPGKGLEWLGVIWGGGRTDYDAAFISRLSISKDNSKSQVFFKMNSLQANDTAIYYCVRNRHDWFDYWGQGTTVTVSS VL: EIEMTQSPSSLSVSAGERATISCSASQDIRNSLNWYQQKPGQAPRLLIYYSSNLHTGVPARFSGSGSGTDFTLTISRLEPEDVAIYYCQQSNKLPLTFGSGTKVEIK needs its pKd filled in; supply it.
Response given: 8.64
